assayedSystem: ERα in MCF7 cells (Homo sapiens (Human))
Sequence (P03372 whole entry): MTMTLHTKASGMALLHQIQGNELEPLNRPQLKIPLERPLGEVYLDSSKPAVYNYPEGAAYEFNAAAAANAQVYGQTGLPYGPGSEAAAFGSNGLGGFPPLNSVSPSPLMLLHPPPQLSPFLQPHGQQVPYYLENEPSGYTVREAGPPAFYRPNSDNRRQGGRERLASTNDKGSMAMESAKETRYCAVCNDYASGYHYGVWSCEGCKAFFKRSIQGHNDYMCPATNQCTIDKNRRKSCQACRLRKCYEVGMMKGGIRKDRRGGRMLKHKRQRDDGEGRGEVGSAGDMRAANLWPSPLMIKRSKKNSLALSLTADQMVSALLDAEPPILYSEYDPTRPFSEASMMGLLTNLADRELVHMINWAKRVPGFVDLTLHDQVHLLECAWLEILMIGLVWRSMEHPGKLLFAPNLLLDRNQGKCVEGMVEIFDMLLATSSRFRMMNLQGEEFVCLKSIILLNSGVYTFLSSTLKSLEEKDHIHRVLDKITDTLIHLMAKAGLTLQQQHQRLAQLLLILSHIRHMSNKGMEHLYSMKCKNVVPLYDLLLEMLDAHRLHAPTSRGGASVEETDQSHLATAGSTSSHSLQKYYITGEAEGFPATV
assay: Test C: estrogen receptor degradation activity, ERα in cell western assay in MCF7 cells
Format: cell-based
appliedConditions: 4 hours post compound addition, ERα in cell western, read-out: Degradation IC50
observable: DC50 (nM)
Numeric only. Scale: nM

Query: DC50; subject: Oc1ccc2c(c1)C(c1ccc(O[C@H]3CCN(CCCF)C3)cc1)=C(c1ccc(OC(F)(F)F)cc1Cl)CC2 [Example 7]
22

Can you share its DC50? I mean this compound: Oc1ccc2c(c1)SCC(c1ccc(OC(F)F)cc1F)=C2c1ccc(O[C@H]2CCN(CCCF)C2)cc1 [Example 35]
1

Any idea what DC50 was measured for Cc1ccc(C2=C(c3ccc(O[C@H]4CCN(CCCF)C4)cc3)c3ccc(O)cc3OCC2)c(F)c1 [Example 96] ?
0.6

Item CCOc1ccc(C2=C(c3ccc(O[C@H]4CCN(CCCF)C4)cc3)c3ccc(O)cc3SC2)c(Cl)c1 [Example 36] has what recorded DC50?
0.2
